# Test system: A549 NSCLC
# method: NCI tumour cell line growth inhibition, 48 h
resultType: TGI

Some compounds with known TGI results, for comparison:
Enquiry: Hello, please tell me recorded TGI for this one: COc1ccc(/C=C2\COc3ccc(O)c(O)c3C2=O)cc1OC
Return: > 100 µM

Enquiry: Hello, please tell me recorded TGI for this one: O=C(N/N=C/c1cc(Cl)ccc1O)c1ccccc1Nc1ccnc(C(F)(F)F)c1
Return: 23.3 µM

Further cases:
Enquiry: Hello, please tell me recorded TGI for this one: C[C@@]1(C(=O)O)CCC[C@]2(C)C1CC[C@]13C[C@@](O)(CO)[C@](O)(CC[C@]12O)C3 (some centres undefined)
Return: > 100 µM

Enquiry: Hello, please tell me recorded TGI for this one: CN1C(=O)[C@H](c2c[nH]c3ccccc23)[C@H](c2c[nH]c3ccccc23)C1=O
Return: > 100 µM

====

# System: DMS 273 small cell lung
# method: NCI tumour cell line growth inhibition, 48 h
resultType: TGI

Some compounds with known TGI results, for comparison:
Enquiry: Hello, please tell me recorded TGI for this one: CN(CCCN1C(=O)c2cccc3cc([N+](=O)[O-])cc(c23)C1=O)CCN(C)CCCN1C(=O)c2cccc3cc([N+](=O)[O-])cc(c23)C1=O
Return: > 39.3 µM

Enquiry: Hello, please tell me recorded TGI for this one: O=[N+]([O-])c1cccc(S(=O)(=O)N/N=C/c2cc(I)cc([N+](=O)[O-])c2O)c1
Return: 52.9 µM

Enquiry: Hello, please tell me recorded TGI for this one: COc1cccc2c(SCC(=O)Nc3ccccc3-c3ccccc3NC(=O)CSc3c4ccccc4nc4c(OC)cccc34)c3ccccc3nc12
Return: > 100 µM

Enquiry: Hello, please tell me recorded TGI for this one: CN(C)N=Nc1cccc(C(N)=O)c1
Return: > 100 µM

Enquiry: Hello, please tell me recorded TGI for this one: Cc1cccc2c1Sc1ccccc1C2NC(=O)CN(C)C (stereo unspecified)
Return: > 100 µM

Further cases:
Enquiry: Hello, please tell me recorded TGI for this one: CO/C=C1\OC(=O)C=C1OC
Return: > 100 µM

Enquiry: Hello, please tell me recorded TGI for this one: CC[C@]1(O)C[C@H]2CN(CCc3c([nH]c4ccccc34)[C@@](C(=O)OC)(c3cc4c(cc3OC)N(C)[C@H]3[C@@](O)(C(=O)OC)[C@H](OC(C)=O)[C@]5(CC)C=CCN6CC[C@]43[C@@H]65)C2)C1
Return: 0.123 µM

====

Catalogue of compounds with associated log10 TGI
# Test system: HS 578T breast
# method: NCI tumour cell line growth inhibition, 48 h
Recall that a logarithmic scale is used here: each number is log10 of TGI in µM.

Some compounds with known log10 TGI results, for comparison:
Enquiry: Hello, please tell me recorded log10 TGI for this one: O=C(N/N=C/c1cc(Cl)ccc1O)c1ccccc1Nc1ccnc(C(F)(F)F)c1
Return: 1.02

Enquiry: Hello, please tell me recorded log10 TGI for this one: CC(C)c1[nH]nc2c(NCc3ccc(-c4ccccn4)cc3)nc(SCCN(C)C)nc12
Return: 0.97

Enquiry: Hello, please tell me recorded log10 TGI for this one: Cc1cc2c3c([n+](C)c4ccc(F)cc4c3c1)-c1cc(F)ccc1N2C
Return: 0.99

Enquiry: Hello, please tell me recorded log10 TGI for this one: Clc1ccc(C(Cc2ccccc2)c2c(Cl)nc(N3CCNCC3)nc2Cl)cc1 (stereo not drawn)
Return: 1.51

Further cases:
Enquiry: Hello, please tell me recorded log10 TGI for this one: c1ccc(C2=NN=C3C(c4ccccc4)=Nc4ccccc4N3C2)cc1
Return: 1.83

Enquiry: Hello, please tell me recorded log10 TGI for this one: CC1(C)N=C(c2ccccc2)SC12S[C@@H]1CCCC[C@H]1S2
Return: 1.23

Enquiry: Hello, please tell me recorded log10 TGI for this one: COc1cccc(/C=C2\SC(=S)N(/C=C3\C(=O)Oc4ccccc4C3=O)C2=O)c1O
Return: 1.92

Every entry's value here was drawn from PubChem BioAssay (NCI).
